From: patent US20210388087A1

- target or test system: T1, Human CD137 ECD (human)
- T1 construct: also called 4-1BB
- T1 sequence (chain, as listed by the source limits assumed): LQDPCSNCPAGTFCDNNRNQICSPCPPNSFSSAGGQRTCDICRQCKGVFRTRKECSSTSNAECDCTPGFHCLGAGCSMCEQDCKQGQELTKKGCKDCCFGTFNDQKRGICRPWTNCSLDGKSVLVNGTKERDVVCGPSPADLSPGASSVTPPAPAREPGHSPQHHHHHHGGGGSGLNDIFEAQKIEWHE
- protocol details: single mutant vs template dBBDu183H
test readout: fold change of affinity (fold)
Report the value in fold with no unit label.

Previously resolved entries follow.
{"binder": "H183/L072 VH Y55L (antibody, name in Kabat numbering, V domains shown) VH: QVQLVESGGGLVQPGRSLRLSCAASGFTFSNAWMHWVRQAPGKGLEWVAQIKDKGNALAAYYAPSVKGRFTISRDDSKNSIYLQMNSLKTEDTAVYYCHYVHYASASTVLPAFGVDAWGQGTTVTVSS VL: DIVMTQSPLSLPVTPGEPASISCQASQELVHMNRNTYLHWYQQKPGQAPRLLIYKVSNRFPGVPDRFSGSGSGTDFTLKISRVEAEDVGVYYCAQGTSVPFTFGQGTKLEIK", "fold change of affinity (fold)": 0.3}
{"binder": "H183/L072 VH A54K (antibody, name in Kabat numbering, V domains shown) VH: QVQLVESGGGLVQPGRSLRLSCAASGFTFSNAWMHWVRQAPGKGLEWVAQIKDKGNKYAAYYAPSVKGRFTISRDDSKNSIYLQMNSLKTEDTAVYYCHYVHYASASTVLPAFGVDAWGQGTTVTVSS VL: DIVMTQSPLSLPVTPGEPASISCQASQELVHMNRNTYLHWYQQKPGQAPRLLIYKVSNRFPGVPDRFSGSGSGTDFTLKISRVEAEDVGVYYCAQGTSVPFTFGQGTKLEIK", "fold change of affinity (fold)": 0.9}

What the record says about H183/L072 VH A56Y (antibody, name in Kabat numbering, V domains shown) VH: QVQLVESGGGLVQPGRSLRLSCAASGFTFSNAWMHWVRQAPGKGLEWVAQIKDKGNAYYAYYAPSVKGRFTISRDDSKNSIYLQMNSLKTEDTAVYYCHYVHYASASTVLPAFGVDAWGQGTTVTVSS VL: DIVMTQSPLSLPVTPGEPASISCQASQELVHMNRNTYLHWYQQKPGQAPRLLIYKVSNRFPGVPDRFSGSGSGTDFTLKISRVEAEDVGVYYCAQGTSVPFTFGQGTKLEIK : fold change of affinity is 0.3
